The measurements presented in this section are drawn from ChEMBL document CHEMBL4145470.

# System: SH-SY5Y
# Protocol description: Cytoprotective activity against H2O2-induced oxidative stress in human SH-SY5Y cells assessed as cell viability at 10 uM preincubated for 24 hrs followed by H2O2 addition and measured after 1 hr by MTT assay (reference value: 37.88 +/- 8.52%)
# Type: functional
# Condition description: read-out: Activity
Property: viability at 10 µM; scope: individual compounds
Provide the measurement as a number trailed by its unit.

COc1ccc(-c2nc3nnccn3c2-c2ccc(OC)cc2)cc1: 75.2%
COc1ccc(-c2nc3nnccn3c2-c2ccc(OC(F)(F)F)cc2)cc1: 66.8%
COc1ccc(-c2nc3nnccn3c2-c2cccc(C#N)c2)cc1: 54.3%
COc1ccc(-c2nc3nnccn3c2-c2ccccc2)cc1: 79.7%
COc1ccc(-c2nc3nnccn3c2-c2ccncc2)cc1: 61.5%

Then this compound:
viability at 10 µM measured on COc1ccc(-c2nc3nnccn3c2-c2cccs2)cc1 = 68.4%

----------
# Experimental target: RAC-alpha serine/threonine-protein kinase (Homo sapiens)
# Protocol description: Induction of Akt phosphorylation in H2O2-treated human SH-SY5Y cells at 0.1 uM by ELISA
# Format: cell-based
Activity calls are given as the source filed them. The calls are words filed in the database; no cut-off is given here.
Tick one outcome: y (active), n (inactive)

Would you please look over these solved cases?
COc1ccc(-c2nc3nnccn3c2-c2ccc([N+](=O)[O-])cc2)cc1: n
COc1ccccc1-c1cn2ccnnc2n1: y
COc1ccc(-c2nc3nnccn3c2-c2ccc(C)c([N+](=O)[O-])c2)cc1: y
COc1ccc(-c2nc3nnccn3c2-c2ccc(OC(F)(F)F)cc2)cc1: y
c1ccc(-c2cn3ccnnc3n2)cc1: y
COc1ccc(-c2nc3nnccn3c2-c2cccs2)cc1: y

Let's switch to this molecule now.
Input line: Tell me the recorded outcome of this test for COc1ccc(-c2nc3nnccn3c2-c2ccccc2)cc1 .
Output line: y

----------
# Test system: SH-SY5Y
# Protocol description: Cytoprotective activity against H2O2-induced oxidative stress in human SH-SY5Y cells assessed as cell viability at 1 uM preincubated for 24 hrs followed by H2O2 addition and measured after 1 hr by MTT assay (reference value: 37.88 +/- 8.52%)
# Type: functional
# Condition description: read-out: Activity
Property: viability at 1 µM; scope: individual compounds
Provide the measurement as a number trailed by its unit.

Take a look at these entries with their results.
COc1ccc(-c2nc3nnccn3c2-c2cccc(F)c2)cc1: 51.3%
COc1cccc(-c2cn3ccnnc3n2)c1: 62.8%

viability at 1 µM measured on COc1ccccc1-c1cn2ccnnc2n1 = 60.5%

viability at 1 µM measured on COc1ccc(-c2nc3nnccn3c2-c2cccc(C#N)c2)cc1 = 55.5%

viability at 1 µM measured on COc1ccc(-c2nc3nnccn3c2-c2ccc(OC)cc2)cc1 = 65.5%

viability at 1 µM measured on c1ccc(-c2cn3ccnnc3n2)cc1 = 72.8%

----------
# Tested on: SH-SY5Y
# Protocol description: Cytoprotective activity against H2O2-induced oxidative stress in human SH-SY5Y cells assessed as cell viability at 1 uM preincubated for 24 hrs followed by H2O2 addition and measured after 1 hr by MTT assay (reference value: 37.88 +/- 8.52%)
# Type: functional
# Condition description: read-out: Activity
Quantity kind: viability at 1 µM

Take a look at these entries with their results.
COc1ccc(-c2nc3nnccn3c2-c2ccc(C)c([N+](=O)[O-])c2)cc1: 79.6%
FC(F)(F)c1ccc(-c2cn3ccnnc3n2)cc1: 59.1%
COc1ccc(-c2nc3nnccn3c2-c2ccccc2C)cc1: 73.8%
COc1ccc(-c2nc3nnccn3c2-c2ccncc2)cc1: 55.7%
COc1ccc(-c2cn3ccnnc3n2)cc1: 71.3%
COc1ccc(-c2nc3nnccn3c2-c2ccccc2)cc1: 50.6%
COc1ccc(-c2nc3nnccn3c2-c2ccc([N+](=O)[O-])cc2)cc1: 56%
N#Cc1ccc(-c2cn3ccnnc3n2)cc1: 65.4%
COc1ccc(-c2nc3nnccn3c2-c2cccs2)cc1: 70.7%
COc1ccc(-c2nc3nnccn3c2-c2ccc(OC(F)(F)F)cc2)cc1: 54.8%

The measured viability at 1 µM that COc1ccc(-c2nc3nnccn3c2-c2ccc(C)cc2)cc1 showed for SH-SY5Y is 67.4%

The measured viability at 1 µM that O=[N+]([O-])c1cccc(-c2cn3ccnnc3n2)c1 showed for SH-SY5Y is 58.9%

----------
# Experimental target: RAC-alpha serine/threonine-protein kinase (Homo sapiens)
# Protocol description: Induction of Akt phosphorylation in H2O2-treated human SH-SY5Y cells assessed as increase in pBad levels at 0.1 uM by ELISA
# Type: cell-based
Calls of active or inactive are those of the source. The rule behind the calls is not given here.
Quantity kind: Activity

Take a look at these entries with their results.
COc1ccc(-c2nc3nnccn3c2-c2ccc(C)c([N+](=O)[O-])c2)cc1: Active
COc1ccc(-c2nc3nnccn3c2-c2ccc(OC(F)(F)F)cc2)cc1: Active
COc1ccccc1-c1cn2ccnnc2n1: Active
COc1ccc(-c2nc3nnccn3c2-c2cccs2)cc1: inactive
COc1ccc(-c2nc3nnccn3c2-c2ccccc2)cc1: Active
c1ccc(-c2cn3ccnnc3n2)cc1: Active

Then this compound:
Activity measured on COc1ccc(-c2nc3nnccn3c2-c2ccc([N+](=O)[O-])cc2)cc1 = inactive

----------
# System: SH-SY5Y
# Protocol description: Cytoprotective activity against H2O2-induced apoptosis in human SH-SY5Y cells assessed as decrease in Bax levels at 0.1 uM preincubated for 24 hrs followed by H2O2 addition measured after 1 hr by Western blot analysis
# Format: functional, cell-based
The source made the active and inactive calls. No cut-off for these calls is given here.
Tick one outcome: active, inactive

Input line: Tell me the recorded outcome of this test for COc1ccc(-c2nc3nnccn3c2-c2ccccc2)cc1 .
Output line: active

Input line: Tell me the recorded outcome of this test for COc1ccccc1-c1cn2ccnnc2n1 .
Output line: active

Input line: Tell me the recorded outcome of this test for COc1ccc(-c2nc3nnccn3c2-c2ccc(OC(F)(F)F)cc2)cc1 .
Output line: active

Input line: Tell me the recorded outcome of this test for COc1ccc(-c2cn3ccnnc3n2)cc1 .
Output line: active

Input line: Tell me the recorded outcome of this test for c1ccc(-c2cn3ccnnc3n2)cc1 .
Output line: inactive

Input line: Tell me the recorded outcome of this test for COc1cccc(-c2cn3ccnnc3n2)c1 .
Output line: active

Input line: Tell me the recorded outcome of this test for COc1ccc(-c2nc3nnccn3c2-c2ccc([N+](=O)[O-])cc2)cc1 .
Output line: active

Input line: Tell me the recorded outcome of this test for FC(F)(F)c1ccc(-c2cn3ccnnc3n2)cc1 .
Output line: active

----------
# Test system: SH-SY5Y
# Protocol description: Cytoprotective activity against H2O2-induced oxidative stress in human SH-SY5Y cells assessed as cell viability at 10 uM preincubated for 24 hrs followed by H2O2 addition and measured after 1 hr by MTT assay (reference value: 37.88 +/- 8.52%)
# Format: functional
# Condition description: read-out: Activity
Property: viability at 10 µM; scope: individual compounds
Provide the measurement as a number trailed by its unit.

COc1ccc(-c2nc3nnccn3c2-c2cccc(F)c2)cc1: 66.4%
O=[N+]([O-])c1cccc(-c2cn3ccnnc3n2)c1: 65.7%
COc1ccccc1-c1cn2ccnnc2n1: 51.1%
COc1ccc(-c2nc3nnccn3c2-c2ccc(C)cc2)cc1: 63.3%
COc1ccc(-c2nc3nnccn3c2-c2ccccc2C)cc1: 72.4%
COc1ccc(-c2cn3ccnnc3n2)cc1: 60.9%

viability at 10 µM measured on COc1cccc(-c2cn3ccnnc3n2)c1 = 65%

viability at 10 µM measured on FC(F)(F)c1ccc(-c2cn3ccnnc3n2)cc1 = 60.8%

----------
# Tested on: SH-SY5Y
# Protocol description: Cytoprotective activity against H2O2-induced oxidative stress in human SH-SY5Y cells assessed as cell viability at 10 uM preincubated for 24 hrs followed by H2O2 addition and measured after 1 hr by MTT assay (reference value: 37.88 +/- 8.52%)
# Type: functional
# Condition description: read-out: Activity
Property: viability at 10 µM; scope: individual compounds
The reply should contain only the number, in %.

Take a look at these entries with their results.
COc1ccc(-c2nc3nnccn3c2-c2ccc(C)c([N+](=O)[O-])c2)cc1: 83.3
c1ccc(-c2cn3ccnnc3n2)cc1: 62.6
N#Cc1ccc(-c2cn3ccnnc3n2)cc1: 54.2

Then this compound:
viability at 10 µM measured on COc1ccc(-c2nc3nnccn3c2-c2ccc([N+](=O)[O-])cc2)cc1 = 74.9
